# study target: human Cav3.2 channels (Homo sapiens)
# Construct: human Cav3.2 channel ORF (Open Reading Frame) gene; expressed in transfected cells; host or cells: HEK293 cells (ATCC No. CRL-1573), pcDNA3.1(+) plasmid
# measurement description: T-type calcium blocking action: intracellular calcium (Fluo-4 AM fluorescence) in HEK293 cells steadily expressing human Cav3.2 channels
# Assay type: cell-based
# experimental context: HEK293 cells expressing human Cav3.2; KCl-stimulated calcium influx, Fluo-4 fluorescence; Tables 1 to 3
Hi there, I'd appreciate the recorded IC50 for every entry that follows.
Please don't drop the unit; write it after the number.

Query: // lookup IC50 | system=human Cav3.2 channels (Homo sapiens) | key= CC(=O)OCC1(NC(=O)Cc2ccc(C3CC3)cc2)CCN(c2cncc(C(F)(F)F)c2)C1 (centres unmarked)
Result: 460 nM

Query: // lookup IC50 | system=human Cav3.2 channels (Homo sapiens) | key= "O=C(Cc1ccc(N2CCCCC2=O)cc1)N[C@@H]1CCN(c2cncc(C(F)(F)F)c2)C1"
Result: 410 nM

Query: // lookup IC50 | system=human Cav3.2 channels (Homo sapiens) | key= "O=C(Cc1ccc(C2CC2)cc1)N[C@H]1CN(c2cncc(C(F)(F)F)c2)CC12CC2"
Result: 130 nM

Query: // lookup IC50 | system=human Cav3.2 channels (Homo sapiens) | key= "O=C(N[C@@H]1CCN(c2cncc(C(F)(F)F)c2)C1)[C@H]1C[C@@H]1c1nc2cc(F)c(F)cc2o1"
Result: 11 nM

Query: // lookup IC50 | system=human Cav3.2 channels (Homo sapiens) | key= "O=C(N[C@@H]1CCN(c2nc3ccc(F)cc3s2)C1)[C@H]1C[C@@H]1c1nc2ccccc2[nH]1"
Result: 210 nM

Query: // lookup IC50 | system=human Cav3.2 channels (Homo sapiens) | key= "O=C(N[C@@H]1CCN(c2cccc(C(F)(F)F)c2)C1)[C@H]1C[C@@H]1c1nc2ccccc2n1C1CC1"
Result: 310 nM

Query: // lookup IC50 | system=human Cav3.2 channels (Homo sapiens) | key= "O=C(Cc1ccc2ocnc2c1)N[C@@H]1CCN(c2ccc(C(F)(F)F)nc2)C1"
Result: 2700 nM

Query: // lookup IC50 | system=human Cav3.2 channels (Homo sapiens) | key= "O=C(Cc1ccc(N2CCC3(CC2)OCCO3)cc1)N[C@@H]1CCN(c2cncc(C(F)(F)F)c2)C1"
Result: 100 nM

====

# study target: human Cav3.2 channels (Homo sapiens, UniProt O95180)
# Construct: human Cav3.2 channel ORF (Open Reading Frame) gene
# Sequence (O95180 whole entry): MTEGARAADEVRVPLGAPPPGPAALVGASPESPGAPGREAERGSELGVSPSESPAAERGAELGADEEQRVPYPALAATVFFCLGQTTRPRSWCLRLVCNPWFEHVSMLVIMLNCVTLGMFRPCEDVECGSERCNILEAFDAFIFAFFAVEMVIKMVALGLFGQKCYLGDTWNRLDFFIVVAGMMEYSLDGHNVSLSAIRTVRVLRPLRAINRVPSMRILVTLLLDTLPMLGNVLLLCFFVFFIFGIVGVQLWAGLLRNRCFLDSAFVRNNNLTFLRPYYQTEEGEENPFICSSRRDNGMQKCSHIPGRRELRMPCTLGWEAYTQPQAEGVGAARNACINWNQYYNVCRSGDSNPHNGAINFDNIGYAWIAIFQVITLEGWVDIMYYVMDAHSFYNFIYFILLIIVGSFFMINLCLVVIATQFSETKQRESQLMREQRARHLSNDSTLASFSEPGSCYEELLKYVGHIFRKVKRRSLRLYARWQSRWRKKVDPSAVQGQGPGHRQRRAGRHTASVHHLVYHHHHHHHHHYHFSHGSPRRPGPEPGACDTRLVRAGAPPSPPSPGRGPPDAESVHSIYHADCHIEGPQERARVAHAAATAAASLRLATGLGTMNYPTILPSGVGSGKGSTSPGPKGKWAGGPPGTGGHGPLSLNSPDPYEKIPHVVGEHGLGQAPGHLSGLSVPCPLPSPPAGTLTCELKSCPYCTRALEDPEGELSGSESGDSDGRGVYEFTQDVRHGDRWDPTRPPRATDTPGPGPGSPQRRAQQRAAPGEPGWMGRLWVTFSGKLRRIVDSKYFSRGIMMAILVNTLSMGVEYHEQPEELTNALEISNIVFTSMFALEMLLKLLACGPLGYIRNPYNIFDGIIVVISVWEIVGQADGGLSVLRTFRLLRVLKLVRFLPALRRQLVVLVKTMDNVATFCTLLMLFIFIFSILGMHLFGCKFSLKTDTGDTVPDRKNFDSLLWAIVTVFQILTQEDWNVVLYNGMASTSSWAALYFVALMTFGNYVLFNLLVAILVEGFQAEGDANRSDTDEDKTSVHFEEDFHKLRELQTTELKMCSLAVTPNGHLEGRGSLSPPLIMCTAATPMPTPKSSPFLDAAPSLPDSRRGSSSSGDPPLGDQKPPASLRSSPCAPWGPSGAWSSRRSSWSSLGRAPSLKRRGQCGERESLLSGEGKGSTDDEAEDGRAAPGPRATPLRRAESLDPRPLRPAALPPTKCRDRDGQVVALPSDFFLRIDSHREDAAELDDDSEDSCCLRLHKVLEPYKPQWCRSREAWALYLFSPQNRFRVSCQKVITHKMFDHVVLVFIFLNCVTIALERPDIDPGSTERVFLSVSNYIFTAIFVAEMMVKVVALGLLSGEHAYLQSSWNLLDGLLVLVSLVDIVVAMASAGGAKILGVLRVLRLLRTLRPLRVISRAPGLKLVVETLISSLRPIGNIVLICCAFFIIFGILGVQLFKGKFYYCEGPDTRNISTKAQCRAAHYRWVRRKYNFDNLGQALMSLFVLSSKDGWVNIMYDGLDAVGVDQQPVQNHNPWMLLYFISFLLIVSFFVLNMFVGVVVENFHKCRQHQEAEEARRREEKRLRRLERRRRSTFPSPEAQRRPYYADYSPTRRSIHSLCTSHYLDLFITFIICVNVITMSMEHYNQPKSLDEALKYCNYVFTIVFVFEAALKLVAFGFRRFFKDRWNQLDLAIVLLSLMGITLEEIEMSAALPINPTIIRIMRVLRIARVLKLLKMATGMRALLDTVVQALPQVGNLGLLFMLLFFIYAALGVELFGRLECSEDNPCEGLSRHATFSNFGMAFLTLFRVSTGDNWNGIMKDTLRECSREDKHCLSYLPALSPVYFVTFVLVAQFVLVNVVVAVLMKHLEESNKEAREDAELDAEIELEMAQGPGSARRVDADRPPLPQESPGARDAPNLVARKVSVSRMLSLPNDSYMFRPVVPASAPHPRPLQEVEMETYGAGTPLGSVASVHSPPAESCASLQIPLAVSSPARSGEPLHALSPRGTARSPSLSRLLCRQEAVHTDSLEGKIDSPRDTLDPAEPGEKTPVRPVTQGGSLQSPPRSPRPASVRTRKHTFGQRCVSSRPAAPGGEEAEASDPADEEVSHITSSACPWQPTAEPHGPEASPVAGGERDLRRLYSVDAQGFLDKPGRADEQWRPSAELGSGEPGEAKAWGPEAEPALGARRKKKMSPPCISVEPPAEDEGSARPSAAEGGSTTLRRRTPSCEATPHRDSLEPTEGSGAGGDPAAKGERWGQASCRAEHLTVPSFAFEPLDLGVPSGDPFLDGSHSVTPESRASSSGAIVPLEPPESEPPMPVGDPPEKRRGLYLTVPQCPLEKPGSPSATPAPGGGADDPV
# measurement description: T-type calcium blocking action: intracellular calcium (Fluo-4 AM fluorescence) in HEK293 cells steadily expressing human Cav3.2 channels
# experimental context: HEK293 cells expressing human Cav3.2; KCl-stimulated calcium influx, Fluo-4 fluorescence; Tables 1 to 3
# Protocol: T-Type Calcium Blocking Action (1) Construction of Cells Steadily Expressing Human Cav3.2 Channels […] The cells steadily expressing human Cav3.2 channels produced by testing method (1) were seeded on a 96-well plate (Dulbecco's modified Eagle medium (DMEM) medium containing 10% fetal bovine serum (FBS) was used as a medium). […] Then, the cells were further allowed to stand at room temperature under light-shielded conditions for 15 minutes and placed in a microplate reader EnVision (PerkinElmer). […]
pIC50: −log10 of the molar value.
Label true (1) when pIC50 >= 8; otherwise false (0).

Query: # check: pIC50 of NC(C(=O)N[C@@H]1CCN(c2cncc(C(F)(F)F)c2)C1)c1ccc(C2CC2)cc1 (single isomer, unassigned) [Example 137B] is greater than or equal to 8
Result: false (0)

Query: # check: pIC50 of "O=C(Cc1ccc(C2CC2)cc1)N[C@@H]1CCN(c2ncc(Br)s2)C1" is greater than or equal to 8
Result: false (0)

Query: # check: pIC50 of "O=C(Cc1ccc(-n2cccn2)cc1)N[C@@H]1CCN(c2cncc(C(F)(F)F)c2)C1" is greater than or equal to 8
Result: false (0)

Query: # check: pIC50 of "O=C(Cc1ccc2[nH]ncc2c1)N[C@@H]1CCN(c2ccc(C(F)(F)F)nc2)C1" is greater than or equal to 8
Result: false (0)

Query: # check: pIC50 of "O=C(N[C@@H]1CCN(c2cncc(C(F)(F)F)c2)C1)[C@H]1C[C@@H]1c1nc2ccccc2o1" is greater than or equal to 8
Result: false (0)

Query: # check: pIC50 of O=C(N[C@@H]1CCN(c2cncc(C(F)(F)F)c2)C1)C1CC1c1ccc(F)c(F)c1 (single isomer, unassigned) [Example 107A] is greater than or equal to 8
Result: true (1)

====

# study target: human Cav3.2 channels (Homo sapiens, UniProt O95180)
# Construct: human Cav3.2 channel ORF (Open Reading Frame) gene
# measurement description: T-type calcium blocking action: intracellular calcium (Fluo-4 AM fluorescence) in HEK293 cells steadily expressing human Cav3.2 channels
# experimental context: HEK293 cells expressing human Cav3.2; KCl-stimulated calcium influx, Fluo-4 fluorescence; Tables 1 to 3
# Description: T-Type Calcium Blocking Action (1) Construction of Cells Steadily Expressing Human Cav3.2 Channels […] The cells steadily expressing human Cav3.2 channels produced by testing method (1) were seeded on a 96-well plate (Dulbecco's modified Eagle medium (DMEM) medium containing 10% fetal bovine serum (FBS) was used as a medium). […] Then, the cells were further allowed to stand at room temperature under light-shielded conditions for 15 minutes and placed in a microplate reader EnVision (PerkinElmer). […]
measured endpoint: IC50 (nM)
Field format: number, assumed nM, no unit text.

Query: Can you share its IC50? I mean this compound: O=C(N[C@@H]1CCCN(c2ccc(C(F)(F)F)nc2)C1)C1CC1c1nc2ccccc2[nH]1 (single isomer, unassigned) [Example 63A]
Result: 190

Query: Can you share its IC50? I mean this compound: O=C(Cc1ccc(C(F)(F)F)cc1)NC1(C(F)(F)F)CCN(c2cncc(C(F)(F)F)c2)C1 (stereo not drawn) [Example 162]
Result: 560

Query: Can you share its IC50? I mean this compound: O=C(N[C@@H]1CCN(c2cncc(C(F)(F)F)c2)C1)C1CC1c1ccc(C2CC2)cc1 (single isomer, unassigned) [Example 106A]
Result: 11

Query: Can you share its IC50? I mean this compound: CC(=O)Nc1ccc(CC(=O)N[C@@H]2CCN(c3cncc(C(F)(F)F)c3)C2)cc1 [Example 35]
Result: 630

Query: Can you share its IC50? I mean this compound: CC(C)c1ccc(CC(=O)NC2CN(c3ccc(C(F)(F)F)nc3)C2)cc1 [Example 118]
Result: 2100

Query: Can you share its IC50? I mean this compound: CC(C)c1ccc(CC(=O)N[C@H]2CCN(c3cncc(C(F)(F)F)c3)C2)cc1 [Example 114]
Result: 1200

Query: Can you share its IC50? I mean this compound: COC(=O)C1(NC(=O)Cc2ccc(C(F)(F)F)cc2)CCN(c2cncc(C(F)(F)F)c2)C1 (stereo not drawn) [Example 38]
Result: 35

Query: Can you share its IC50? I mean this compound: O=C(Cc1ccc2cc[nH]c2c1)N[C@@H]1CCN(c2nc(C(F)(F)F)cs2)C1 [Example 187]
Result: 510

Query: Can you share its IC50? I mean this compound: O=C(Cc1ccc2cc[nH]c2c1)N[C@@H]1CCN(c2ccc(C(F)(F)F)nc2)C1 [Example 85]
Result: 110

Query: Can you share its IC50? I mean this compound: O=C(Cc1ccc([N+](=O)[O-])cc1)N[C@@H]1CCN(c2cncc(C(F)(F)F)c2)C1 [Example 30]
Result: 650

Query: Can you share its IC50? I mean this compound: O=C(N[C@@H]1CCN(c2cncc(C(F)(F)F)c2)C1)C1(c2ccc(Cl)cc2)CC1 [Example 24]
Result: 720

Query: Can you share its IC50? I mean this compound: NC(=O)C1(NC(=O)Cc2ccc(C3CC3)cc2)CCN(c2cncc(C(F)(F)F)c2)C1 (stereo not drawn) [Example 21]
Result: 1200

Query: Can you share its IC50? I mean this compound: Cc1nc2cc(CC(=O)N[C@@H]3CCN(c4cncc(C(F)(F)F)c4)C3)ccc2o1 [Example 153]
Result: 570

Query: Can you share its IC50? I mean this compound: O=C(Cc1ccc(OC(F)(F)F)cc1)N[C@@H]1CCN(c2cncc(C(F)(F)F)c2)C1 [Example 115]
Result: 91

Query: Can you share its IC50? I mean this compound: O=C(Cc1ccc(N2CC3CC2CO3)cc1)N[C@@H]1CCN(c2ccc(C(F)(F)F)nc2)C1 (single isomer, unassigned) [Example 166]
Result: 220

====

# study target: human Cav3.2 channels (Homo sapiens, UniProt O95180)
# Construct: human Cav3.2 channel ORF (Open Reading Frame) gene
# measurement description: T-type calcium blocking action: intracellular calcium (Fluo-4 AM fluorescence) in HEK293 cells steadily expressing human Cav3.2 channels
# experimental context: HEK293 cells expressing human Cav3.2; KCl-stimulated calcium influx, Fluo-4 fluorescence; Tables 1 to 3
pIC50: −log10 of the molar value.
So basically every entry gets a class from its pIC50, ranges being c1 = under 6, c2 = from 6 up to 7, c3 = 7 and over

Query: Note: place this compound into its band. Item: "O=C(Cc1ccc(C2CC2)cc1)N[C@H]1CN(c2cncc(C(F)(F)F)c2)C[C@@H]1F"
Result: c2

Query: Note: place this compound into its band. Item: "O=C(N[C@@H]1CCN(c2cnc(C(F)(F)F)nc2)C1)[C@H]1C[C@@H]1c1nc2ccccc2[nH]1"
Result: c2

Query: Note: place this compound into its band. Item: "CC(C)c1ccc(CC(=O)N[C@@H]2CCN(c3ncc(C(F)(F)F)cn3)C2)cc1"
Result: c1

Query: Note: place this compound into its band. Item: "O=C(Cc1ccc(C(F)(F)F)cc1)N[C@@H]1CCN(c2cncc(C(F)(F)F)c2)C1"
Result: c3

Query: Note: place this compound into its band. Item: "O=C(N[C@@H]1CCN(c2cncc(C(F)(F)F)c2)C1)[C@H]1C[C@@H]1c1nc2ccc(F)cc2o1"
Result: c3

Query: Note: place this compound into its band. Item: "C[C@@]1(NC(=O)Cc2ccc(C3CC3)cc2)CCN(c2cncc(C(F)(F)F)c2)C1"
Result: c2

Query: Note: place this compound into its band. Item: "COc1cc(OC)nc(N2CC[C@@H](NC(=O)Cc3ccc(C4CC4)cc3)C2)n1"
Result: c1

Query: Note: place this compound into its band. Item: "O=C(Cc1ccc(N2C3CCC2COC3)cc1)N[C@@H]1CCN(c2ccc(C(F)(F)F)nc2)C1"
Result: c2

Query: Note: place this compound into its band. Item: "C[C@H]1C[C@@H](NC(=O)Cc2ccc(C3CC3)cc2)CN1c1cncc(C(F)(F)F)c1"
Result: c2
